System: EW-22 (Ewing's Sarcoma);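 also: after 72 h of two-drug dosing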
Assay: Bliss excess, mean over the matrix (fraction); higher = more synergy

[
  {
    "Molecule": "CN(C)CCCOc1ccc(-c2ccc3ncc4c(c3c2)n(C2CCOCC2)c(=O)n4C)cn1 [AZD0156] + C=CCn1c(=O)c2cnc(Nc3ccc(N4CCN(C)CC4)cc3)nc2n1-c1cccc(C(C)(C)O)n1 [AZD1775] (first compound max 1 µM, partner max 1 µM)",
    "Bliss excess": 0.006
  },
  {
    "Molecule": "C[C@@H](Nc1cc(F)cc(F)c1)c1cc(C(=O)N(C)C)cc2c(=O)cc(N3CCOCC3)oc12 [AZD8186] + C1CN(CCC1(C(=O)N[C@@H](CCO)C2=CC=C(C=C2)Cl)N)C3=NC=NC4=C3C=CN4 [AZD5363] (first compound max 10 µM, 7x7, partner max 10 µM)",
    "Bliss excess": -0.0197
  },
  {
    "Molecule": "NC1(C(=O)N[C@@H](CCO)c2ccc(Cl)cc2)CCN(c2ncnc3[nH]ccc23)CC1 [Capivasertib] + Cn1cnc2c(F)c(Nc3ccc(Br)cc3Cl)c(C(=O)NOCCO)cc21 [Selumetinib] (first compound max 10 µM, 7x7, partner max 10 µM)",
    "Bliss excess": -0.0255
  },
  {
    "Molecule": "NC1(C(=O)N[C@@H](CCO)c2ccc(Cl)cc2)CCN(c2ncnc3[nH]ccc23)CC1 [Capivasertib] + CC(C)n1c(=O)n(C)c2cnc3cc(F)c(-c4ccc(OCCCN5CCCCC5)nc4)cc3c21 [AZD1390] (first compound max 10 µM, 7x7, partner max 0.3 µM)",
    "Bliss excess": -0.0613
  },
  {
    "Molecule": "CN(CCO)CC[C@H](CSc1ccccc1)Nc1ccc(S(=O)(=O)NC(=O)c2ccc(N3CCC([C@@H](O)c4ccccc4-c4ccc(Cl)cc4)CC3)cc2)cc1S(=O)(=O)C(F)(F)F [AZD4320] + C1CN(CCC1(C(=O)N[C@@H](CCO)C2=CC=C(C=C2)Cl)N)C3=NC=NC4=C3C=CN4 [Capivasertib] (first compound max 1 µM, 7x7, partner max 3 µM)",
    "Bliss excess": -0.0341
  },
  {
    "Molecule": "CCc1c2c(nc3ccc(O)cc13)-c1cc3c(c(=O)n1C2)COC(=O)[C@]3(O)CC [SN-38] + O=C(c1cc(Cc2n[nH]c(=O)c3ccccc23)ccc1F)N1CCN(C(=O)C2CC2)CC1 [Olaparib] (first compound max 0.3 µM, 7x7, partner max 10 µM)",
    "Bliss excess": 0.0213
  }
]

The measured values listed here are drawn from the supplement of paper PMC11061612.
